Counter-ions that a name gives are not always drawn.
// endpoint Ki / system human dopamine D2Long (D2L) receptors (Homo sapiens)
assay.endpoint: Ki (nM)

Sample answers from the record:
compound	unit.text	Ki
Cc1ccc2c(c1O)C[C@@H](C1CCN(Cc3ccc(Cl)cc3Cl)CC1)O[C@H]2CN [Example 59, dihydrochloride]	nM	443
Cc1ccc2c(c1O)C[C@@H](C1CCN(Cc3ccc(C(F)(F)F)cc3)CC1)O[C@H]2CN [Example 74, dihydrochloride]	nM	655

I: Cc1ccc2c(c1O)C[C@@H](C1CCN(C(=O)OCc3ccccc3)CC1)O[C@H]2CN [Example 122, hydrochloride]
II: CNC[C@@H]1O[C@H](C2CCN(Cc3ccc(OC)cc3)CC2)Cc2c1ccc(C)c2O [Example 99, dihydrochloride]
Query: // task: argmin of Ki over [ I , II ] Let me know the label of the one you choose.
Result: II

The measurements presented in this section are drawn from patent US7919508B2.
